system: MS2 coat protein; assay: apparent KD of MS2 coat protein; designed switch direction (-1 OFF switch, 1 ON switch): -1; higher = weaker reporter binding; details: input ligand: microRNA oligo, concentration not stated
# Lookup of reported apparent KD of MS2 coat protein keyed by entry

>  <Residues>
GCAGCAAUCUCAAUUAAAACCACAUGAGGAUCACCCAUGUCUCAGGAUAUGGUCUGGAUUACAGGCCAGAAGGGAGAAAGCUGC [Eli exng3 - 053] (Eterna round: R96, puzzle: Exclusion NG 3)

>  <apparent KD of MS2 coat protein>
10.2 nM

$$$$
>  <Residues>
ACAUGAGGAUCACCCAUGUCAGGUGGGUCCUCUCCGGCUGUUGAGGAUAUAGUCCGGUAUCCGCGCUAGAAGGUGAGGGCUGGC [Aenatbe mod 16] (Eterna round: R96, puzzle: Exclusion NG 3)

>  <apparent KD of MS2 coat protein>
23.8 nM

$$$$

--- query ---
Entry ACUAAACAUGUAGGAUAUGCGUGGCGAAGCUAUGCAGAAGGACAUGAGGAUCACCCAUGUUUUAGCGUCUGCGUACAGAUGCGU [JL ENG1 1.44] (Eterna round: R96, puzzle: Exclusion NG 1) ; apparent KD of MS2 coat protein = 17.5 nM

---

system: K4 kissing-loop RNA reporter; experiment: apparent KD of K4 kissing-loop reporter; higher = weaker reporter binding; conditions: Eterna round: R107; input ligand: none;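 also: bound reporter read as fluorescence of individual clusters on recovered sequencing chips by microscopy, with normalized cluster intensities fitted with a binding model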
Quick rule: apparent KD of K4 kissing-loop reporter of at least 200 nM means Criterion met, below that means Criterion not met.

// below: answered sequences
>  <Residues>
CCCUAAAUAUGCAGUGAUGUUGCAACUGAUACCAGUAUCGAAAGAUACCCUUGGCAGCGGAAAACCGCUACGUAAUUUAAAAGGG [Ex Theophylline A K4 19]

>  <Label>
Criterion met

$$$$
>  <Residues>
CUGUCAUGGGAUGGGCCAGUGAUGUUGGGCCGAGGACCGGUACGGCCGCCACUCGUAGCACAGUGCGCGCUAGCAUUGUACGUCA [theeternabot_exclusion_KL_Trp_A_35]

>  <Label>
Criterion met

$$$$
>  <Residues>
CGCGCCCAGCCGGAUACCAGUGACCCGCUGGGAACCGCGGGCCCAGAGUGAUGUUCGGGACACCCUUGGCAGCCGCCUGGGCGAC [#2 Same State - Theophylline B Attempt #8 (HarryS)]

>  <Label>
Criterion met

$$$$
>  <Residues>
AAAAUUGCGGUCGAUAGAACUUUUUGCUUACGAGGACCGGUACGGCCGCCACUCGAGUCAAGUGAUGUUUGAUUUUCUAUUAUUA [JR_ExcTryptoA_Sub014]

>  <Label>
Criterion not met

$$$$
>  <Residues>
AAAUCUUUCAGAAGGAGCGUGGAUUAUUCUUAUAUAUUUAUUACGAGUGAUGUUCGUAAUUCACAGGUAGGUCGCUGAUCAAUAA [JR_ExcArginiB_Sub006]

>  <Label>
Criterion not met

$$$$

# check: apparent KD of K4 kissing-loop reporter of UACUUAUAGUUAUUUCUAAAUUUAUUUAGUCAGGAUAUCGAAUAGUCGAGAAGGGACAUAAUCAAGUGAUGUUUGAUUAUUCAAA [JR_SSFMNA_Sub023] is greater than or equal to 200 nM
Criterion not met

# check: apparent KD of K4 kissing-loop reporter of AGAGAUAUAUGAGGAUAUGAGUUAGUUAAUGAGUUAGUUUUAGUGUUGUUUGGUUAGUGAUGUUAUUUAGAAGGCGUGAGUGAUG [cxfsmullin] is greater than or equal to 200 nM
Criterion not met

# check: apparent KD of K4 kissing-loop reporter of CGCCAGGGUGAAGGAUAUCCGUCUGAUUGAGCGCAGUGAUGUUGCGCGAUUCGUUCAUCGCUCGGAGGAGAAGGUCAGAUAACUC [theeternabot_sameState_KL_FMN_B_3] is greater than or equal to 200 nM
Criterion not met

# check: apparent KD of K4 kissing-loop reporter of GCCGUACGCAUGGAUACCAGUUGCGAAGUGAUGUUUCGGGCGAUCAAAGGAUCGCCCAACAACCCUUGGCAGCCAUGCGUACGGC is greater than or equal to 200 nM
Criterion not met

# check: apparent KD of K4 kissing-loop reporter of AGAUUCGACACGGCCGCCACUCGUGGUGGAUUACCUAGUGUCGAAGUUGAGUGAUGUUCAAGUACGAGGACCGGGUGUUGAGUCU [KL-XTryp-B8 #analogue] is greater than or equal to 200 nM
Criterion met

# check: apparent KD of K4 kissing-loop reporter of AAGUGAUGUUGUAGUGAUGUUGUGAUGUUGCAGGAUAUAUAGUGAUGUAGAAGGGUAUGUACUUAUUUGUUUUUUGAGUUAUGUU [zzazzrmullin] is greater than or equal to 200 nM
Criterion not met

# check: apparent KD of K4 kissing-loop reporter of UCGACUGUGUCGGCCGCCACUGGUAUAAACGGACUAUAACGACAUGAGUGAUGUUCAUGUUCGUCUAGGACCGGGACACAAUGUA [Tryp B Ex t3] is greater than or equal to 200 nM
Criterion not met

# check: apparent KD of K4 kissing-loop reporter of GGCCGCAAGGCGAGCGCUCCCACUCCGGAAGGAGCGCCCGGAAGGGCAGGUAGGUCGCCGGAGUGAUGUUCCGGUGGAGGGCUCG [#2 Exclusion - Arginine A Attempt #18 (Inspired by Omei)] is greater than or equal to 200 nM
Criterion met

# check: apparent KD of K4 kissing-loop reporter of GCUCAUCCGGCAGGAUAUAGGCAGGUAGAGUGAUGUUCGAACUGCAGUUAUCCAUCCUUCUACCUACUAGAAGGGCCGGAUGAGC is greater than or equal to 200 nM
Criterion met

# check: apparent KD of K4 kissing-loop reporter of GCCUAGGCUCGAAAGAGCCUAGGCUUGUCUCAGGAUAUCUGGAAACAGAGAAGGGAGCUACUAGUGAUGUUAGGAAUUCCCUAAG is greater than or equal to 200 nM
Criterion not met

# check: apparent KD of K4 kissing-loop reporter of GUAGACGUACCUUCAGUGAUGUUGAAGGAUACCAGAUGUUACCACAUCCCUUGGCAGCCUUGGGAUAACAGUGAGUUGGAAUAUG [Usrite] is greater than or equal to 200 nM
Criterion not met

---

test system: MS2 coat protein; assay: apparent KD of MS2 coat protein, switch ON state; designed switch direction (-1 OFF switch, 1 ON switch): 1; higher = weaker reporter binding; details: FMN input: 0 or 200 uM; Eterna round: R93 (includes R88 designs)
# Lookup of reported apparent KD of MS2 coat protein keyed by entry
Use nM as the unit, but write only the number.

>  <Residues>
AAGAAACAUGAGGAUCACCCAUGUGAGAUAAACACAGGAUAUGCGAAAAGAAACAAAGAAGCAGAAGGGUGAAGAA [Mat - Same State 1 - Tesla mod - 55]

>  <Target under test>
MS2 coat protein

>  <Uom>
nM

>  <apparent KD of MS2 coat protein>
34.9

$$$$

Entry GGUCGACAUGAGGAUCACCCAUGUAAGCCAAGGCAAGGAUAUGGGUAUAGGGUGCUAGGAUUAGAAGGUGCCAAAA [Soredige] ; apparent KD of MS2 coat protein = 87.1

Entry AACAAUCUAUCUGAGGAUAUGUGUCAAAAGACAUGAGGAUCACCCAUGUAAAAACAUGAAAAAACACAGAAGGCAGAUAGAUUGA [SS2: 1148] ; apparent KD of MS2 coat protein = 41.8

Entry UAUCAUUACACGAAGGAUAUCGAUAAUUGAACAUGAGGAUCACCCAUGUGCCAUCCCUUACAGUUCGAGAAGGUCGAGGGUGAAG [JR_SS002_Sub707] ; apparent KD of MS2 coat protein = 142

Entry GAAAAACAUGAGGAUCACCCAUGUUAAUAUAUGGGAGGAUAUACAAAGACGAAAGUCAAAGUAGAAGGCCUAAAAG ; apparent KD of MS2 coat protein = 19.7

Entry GUAGACAUAGUUCAGGAUAUAUGAAUAGUCACAUGAGGAUCACCCAUGUGCAUUUAUAUGCGCACAUAGAAGGGAGGUAGUUAAC [Mat - Same state - Malcolm Mod - D122] ; apparent KD of MS2 coat protein = 22.3

---

tested on: MS2 coat protein; assay: apparent KD of MS2 coat protein; designed switch direction (-1 OFF switch, 1 ON switch): -1; higher = weaker reporter binding; settings: Eterna round: R95; input ligand: none
# Lookup of reported apparent KD of MS2 coat protein keyed by entry
Use nM as the unit, but write only the number.

Recorded results for 4 sequences are shown here.
>  <Residues>
GCAUCCAAUGUGAGGAUAUACCUCUGGAUACAUAGGUAGAAGGCACAUGAGGAUCACCCAUGUUCCAAGGAUGC [Fiskers BMX 4 - 30] (puzzle: Brourd's mod of Exclusion 4)

>  <apparent KD of MS2 coat protein [nM]>
82

$$$$
>  <Residues>
GUGAAACAUGAGGAUCACCCAUGUGAGGAUAUGAUUUAGUAAUGAUGAAAGUAAAUAUUCAGAAGGCACAAUGG [Mat - Mod of JL D71] (puzzle: Exclusion 1)

>  <apparent KD of MS2 coat protein [nM]>
90.2

$$$$
>  <Residues>
AGGAAGCAAGGAUAUACGAGGAGAAGGUGUCCAUCUAAAGGACAUGAGGAUCACCCAUGUAGAAGGUGCGAGAA [JR_Exclu2_Sub049] (puzzle: Exclusion 2)

>  <apparent KD of MS2 coat protein [nM]>
189

$$$$
>  <Residues>
CCGGAUAUGCAGGAUAUCGUAUCGGAGACGAUACGAGAAGGGUAUACAUGAGGAUCACCCAUGUGCCUUACCGG [Mat - Exclusion 6 - Eli Mod - D82] (puzzle: Exclusion 6)

>  <apparent KD of MS2 coat protein [nM]>
20.7

$$$$

--- query ---
Entry AAGUACCGUCACGAAAGUGAUGGUACAGCAAGUAAAUGUACAUGAGGAUCACCCAUGUCCUCAAUUGCUCGUCUUAU [Sensor 3 - 59] (puzzle: Sensor v3, turn-off variant 2) ; apparent KD of MS2 coat protein = 212
